Listed here are compounds together with their documented z-score of subpopulation abundance.
Test system: Saccharomyces cerevisiae BY4741 SeMeCo community
Test: z-score of subpopulation abundance vs DMSO median, subpopulation auxotrophic for HLU; higher = larger share of this subpopulation than in DMSO controls
Details: 10 µM; 24 h; SM minimal medium; subpopulation (auxotrophy): HLU

>  <compound>
OCCN(CCO)c1nc(N2CCCCC2)c2nc(N(CCO)CCO)nc(N3CCCCC3)c2n1

>  <target_entity>
Saccharomyces cerevisiae BY4741 SeMeCo community

>  <z-score of subpopulation abundance>
-3.69

$$$$
>  <compound>
NC12CC3CC(CC(C3)C1)C2

>  <target_entity>
Saccharomyces cerevisiae BY4741 SeMeCo community

>  <z-score of subpopulation abundance>
0.22

$$$$
>  <compound>
CCC(C)n1ncn(-c2ccc(N3CCN(c4ccc(OCC5COC(Cn6cncn6)(c6ccc(Cl)cc6Cl)O5)cc4)CC3)cc2)c1=O (centres undefined)

>  <target_entity>
Saccharomyces cerevisiae BY4741 SeMeCo community

>  <z-score of subpopulation abundance>
7.28

$$$$
>  <compound>
COc1ccc(Cl)cc1C(=O)NCCc1ccc(S(=O)(=O)NC(=O)NC2CCCCC2)cc1 [Glyburide (Glibenclamide)]

>  <target_entity>
Saccharomyces cerevisiae BY4741 SeMeCo community

>  <z-score of subpopulation abundance>
0.43

$$$$

* * *

Test system: Saccharomyces cerevisiae BY4741 SeMeCo community
Experiment: z-score of subpopulation abundance vs DMSO median, subpopulation auxotrophic for HLU; higher = larger share of this subpopulation than in DMSO controls
Conditions: 10 µM; 24 h; SM minimal medium; subpopulation (auxotrophy): HLU
Counter-ions that a name gives are not always drawn.
Response key: 1 (yes) means z-score of subpopulation abundance >= 0.4; 0 (no) means z-score of subpopulation abundance < 0.4.

>  <compound>
COc1cc(NC(C)CCCN)c2ncccc2c1 (configuration not stated) [Primaquine Diphosphate]

>  <target_entity>
Saccharomyces cerevisiae BY4741 SeMeCo community

>  <assigned_category>
0 (no)

$$$$
>  <compound>
NC[C@H]1O[C@H](O[C@H]2[C@H](O)[C@@H](O[C@H]3O[C@H](CO)[C@@H](O)[C@H](N)[C@H]3O)[C@H](N)C[C@@H]2N)[C@H](O)[C@@H](O)[C@@H]1O [Kanamycin sulfate]

>  <target_entity>
Saccharomyces cerevisiae BY4741 SeMeCo community

>  <assigned_category>
1 (yes)

$$$$
>  <compound>
O=C(O)c1cccnc1Nc1cccc(C(F)(F)F)c1

>  <target_entity>
Saccharomyces cerevisiae BY4741 SeMeCo community

>  <assigned_category>
0 (no)

$$$$
>  <compound>
CC1(C)[C@H](C(=O)O)N2C(=O)C[C@H]2S1(=O)=O

>  <target_entity>
Saccharomyces cerevisiae BY4741 SeMeCo community

>  <assigned_category>
0 (no)

$$$$
>  <compound>
C/C(=C\C(=O)OCCCCCCCCC(=O)O)C[C@@H]1OC[C@H](C[C@@H]2O[C@H]2[C@@H](C)[C@H](C)O)[C@@H](O)[C@H]1O

>  <target_entity>
Saccharomyces cerevisiae BY4741 SeMeCo community

>  <assigned_category>
0 (no)

$$$$
>  <compound>
CO/N=C(\C(=O)N[C@@H]1C(=O)N2C(C(=O)O)=CCS[C@H]12)c1csc(N)n1

>  <target_entity>
Saccharomyces cerevisiae BY4741 SeMeCo community

>  <assigned_category>
0 (no)

$$$$
>  <compound>
O=C1OC(CN2CCOCC2)CN1/N=C/c1ccc([N+](=O)[O-])o1 (configuration not stated) [Furaltadone HCl]

>  <target_entity>
Saccharomyces cerevisiae BY4741 SeMeCo community

>  <assigned_category>
0 (no)

$$$$
>  <compound>
N#Cc1ccc2[nH]cc(CCCCN3CCN(c4ccc5oc(C(N)=O)cc5c4)CC3)c2c1 [Vilazodone]

>  <target_entity>
Saccharomyces cerevisiae BY4741 SeMeCo community

>  <assigned_category>
1 (yes)

$$$$
>  <compound>
CC(C)N1CCN(c2ccc(OCC3COC(Cn4cncn4)(c4ccc(Cl)cc4Cl)O3)cc2)CC1 (configuration not stated)

>  <target_entity>
Saccharomyces cerevisiae BY4741 SeMeCo community

>  <assigned_category>
0 (no)

$$$$
>  <compound>
Cc1cccc(C)c1NC(=O)C1CCCCN1C (configuration not stated) [Mepivacaine]

>  <target_entity>
Saccharomyces cerevisiae BY4741 SeMeCo community

>  <assigned_category>
0 (no)

$$$$
>  <compound>
CC[C@H]1OC(=O)[C@H](C)[C@@H](O[C@H]2C[C@@](C)(OC)[C@@H](O)[C@H](C)O2)[C@H](C)[C@@H](O[C@@H]2O[C@H](C)C[C@H](N(C)C)[C@H]2O)[C@](C)(O)C[C@@H](C)C(=O)[C@H](C)[C@@H](O)[C@]1(C)O [Erythromycin]

>  <target_entity>
Saccharomyces cerevisiae BY4741 SeMeCo community

>  <assigned_category>
1 (yes)

$$$$

src = the supplement of paper PMC8975748
